tested on: Staphylococcus epidermidis 270; test: Broth micro-dilution MIC; format: cell-based
Value Type: MIC (µg/mL)
Express it in µg/mL; write the number only.

q: Give MIC for the following molecule: CCCCCCCC(=O)N(C)C(CC(C)C)C(=O)NC1C(=O)NC(CC(N)=O)C(=O)NC2C(=O)NC3C(=O)NC(C(=O)NC(C(=O)O)c4cc(O)cc(O)c4-c4cc3ccc4O)C(OC3CC(C)(N)C(O)C(C)O3)c3ccc(c(Cl)c3)Oc3cc2cc(c3OC2OC(CO)C(O)C(O)C2OC2CC(C)(N)C(O)C(C)O2)Oc2ccc(cc2Cl)C1O (stereo not drawn) [Example 10, 1′-N-octanoyl-A82846B]
a: 0.5

q: Provide one value: measured MIC of CNC(CC(C)C)C(=O)NC1C(=O)NC(CC(N)=O)C(=O)NC2C(=O)NC3C(=O)NC(C(=O)NC(C(=O)O)c4cc(O)cc(O)c4-c4cc3ccc4O)C(OC3CC(C)(N)C(O)C(C)O3)c3ccc(c(Cl)c3)Oc3cc2cc(c3OC2OC(CO)C(O)C(O)C2OC2CC(C)(NC(=O)c3ccc(-c4ccc(Cl)cc4)cc3)C(O)C(C)O2)Oc2ccc(cc2Cl)C1O (stereo not drawn)
a: 2
